# Measurement Target: UniProtKB Q9UBT2
# Test Summary: SUMOylation inhibitor hit validation, confirmation, SUMOylation inhibitor project, biochemical, AlphaScreen (AID 2018)
# Type: functional
The source made the active and inactive calls. Cut-off read from the data, not from the text of the source: actives have a measured IC50 and inactives only a lower limit.
Endpoint Label: IC50

In one line, give reported IC50 of the entry `Cc1cccc(C)c1OCC(=O)N=Nc1c(O)[nH]c2ccc(Br)cc12` .
10.6 µM (active)

In one line, give reported IC50 of the entry `CCOc1cc(/C=N/N=C(\N)c2nonc2N)cc(Br)c1OCc1cccc2ccccc12` .
80 µM (active)

In one line, give reported IC50 of the entry `O=C(Nc1nccs1)c1cc(-c2ccco2)nc2ccccc12` .
6.87 µM (active)
